Reported half-life at 3 μM is given for each of the following compounds.
# TEST: Metabolic stability in human liver microsomes
# Type: in vitro ADME
# RUN_PARAMETERS: pH 7.4; pooled human liver microsomes 0.5 mg/mL, test compound 3 μM, NADPH, 0, 5, 15, 30, 45 min, LC-MS/MS
The response must be a number in h with no trailing unit.

Worked cases, half-life at 3 μM given:
[2H]c1ccc2c(c1)OC(C1=NC([2H])([2H])C([2H])([2H])N1)CO2 (stereo not shown) [Compound 50]    913
[2H]c1c([2H])c([2H])c2c(c1[2H])OCC(C1=NC([2H])([2H])C([2H])([2H])N1)O2 (stereo not shown) [Compound 52]    7.75

Which value of half-life at 3 μM has been reported for [2H]c1ccc2c(c1)OCC(C1=NC([2H])([2H])C([2H])([2H])N1)O2 (stereo not shown) [Compound 49] in the records?
15.5

Could you share which half-life at 3 μM value was measured for [2H]c1cc2c(cc1[2H])OC(C1=NC([2H])([2H])C([2H])([2H])N1)CO2 (stereo not shown) [Compound 51] ?
13.8
